Collected viability at 6 h, 10 ug/ml values appear next to each entry.
# experiment: Genotoxicity in polA-deficient Escherichia coli assessed as survival at 10 ug/ml after 6 hrs by DNA-repair test
# Format: toxicity, organism-based
# testParameters: read-out: Survival
Give the value in % but do not write % after it.

Example results:
[
  {
    "molecule": "Cc1nc(C[P+](c2ccccc2)(c2ccccc2)c2ccccc2)c(C[P+](c2ccccc2)(c2ccccc2)c2ccccc2)c2c1OC(C)(C)OC2.[Cl-].[Cl-]",
    "outputUnit": "%",
    "viability at 6 h, 10 ug/ml": 112
  },
  {
    "molecule": "CCCC1OCc2c(C[P+](c3ccccc3)(c3ccccc3)c3ccccc3)c(C[P+](c3ccccc3)(c3ccccc3)c3ccccc3)nc(C)c2O1.[Cl-].[Cl-] (stereo not drawn)",
    "outputUnit": "%",
    "viability at 6 h, 10 ug/ml": 108
  }
]

Kindly review the next molecule as well.
Note to self: viability at 6 h, 10 ug/ml recorded for `CCCC[P+](CCCC)(CCCC)Cc1nc(C)c2c(c1C[P+](CCCC)(CCCC)CCCC)COC(C)(C)O2.[Cl-].[Cl-]` was 118
